These entries and their values trace back to ChEMBL document CHEMBL1201861.

test system: LK-2; experiment: cells; type: functional, cell-based, Homo sapiens; details: Homo sapiens, LK-2;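 further: growth inhibition of LK-2 cells, read out with a viability assay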
Description: SANGER: Inhibition of human LK-2 cell growth in a cell viability assay.
Where a name gives a salt, the structure may show the parent alone.
Consider the following compounds and their measured IC50 readings.
Result type: IC50 (µM)

compound=N#Cc1c(O)c2c(-c3ccc(-c4ccccc4O)cc3)csc2[nH]c1=O result_type=IC50 measurement_unit=µM result_modifier=> endpoint_result=1.02
compound="CCN(CC)CCCCNc1ncc2cc(-c3cc(OC)cc(OC)c3)c(NC(=O)NC(C)(C)C)nc2n1 [PD-173074]" result_type=IC50 measurement_unit=µM result_modifier=> endpoint_result=2
compound=CC(C)c1ccccc1Cc1cc(C(=O)Nc2ccc(S(=O)(=O)c3ccccc3C(C)(C)C)cc2)c(O)c(O)c1O result_type=IC50 measurement_unit=µM result_modifier== endpoint_result=1.5
compound="COC1=CC(c2cc3ccccc3[nH]2)=N/C1=C\\c1[nH]c(C)cc1C [OBATOCLAX MESYLATE]" result_type=IC50 measurement_unit=µM result_modifier== endpoint_result=0.0506
compound="C=C(c1ccc(C(=O)O)cc1)c1cc2c(cc1C)C(C)(C)CCC2(C)C [BEXAROTENE]" result_type=IC50 measurement_unit=µM result_modifier=> endpoint_result=8

----------
tested on: HTC-C3; test: cells; format: functional, cell-based, Homo sapiens; conditions: Homo sapiens, HTC-C3;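 further: inhibition of cell growth, read out with a cell viability assay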
Description: SANGER: Inhibition of human HTC-C3 cell growth in a cell viability assay.
Counter-ions that a name gives are not always drawn.
Result type: IC50

molecule=CCC/C=C/C=C/C(=O)O[C@H]1/C(=C/C(=O)OC)C[C@H]2C[C@H]([C@@H](C)O)OC(=O)C[C@H](O)C[C@@H]3C[C@H](OC(C)=O)C(C)(C)[C@](O)(C[C@@H]4C/C(=C/C(=O)OC)C[C@H](/C=C/C(C)(C)[C@]1(O)O2)O4)O3 endpoint_result="> 8 nM"
molecule=Nc1ccn([C@@H]2O[C@H](CO)[C@@H](O)C2(F)F)c(=O)n1 endpoint_result="996 nM"
molecule=Oc1ccc2ccccc2c1SSc1c(O)ccc2ccccc12 endpoint_result="> 32000 nM"
molecule="Nc1cccc2c1CN(C1CCC(=O)NC1=O)C2=O (centres undefined) [LENALIDOMIDE]" endpoint_result="> 5000 nM"
molecule=C=C(c1ccc(C(=O)O)cc1)c1cc2c(cc1C)C(C)(C)CCC2(C)C endpoint_result="> 8000 nM"
molecule=Cn1cnc2c(F)c(Nc3ccc(Br)cc3Cl)c(C(=O)NOCCO)cc21 endpoint_result="215 nM"
molecule=Cc1cc([N+](=O)[O-])ccc1NS(=O)(=O)c1cc(Cl)ccc1Cl endpoint_result="3030 nM"
molecule="COC1=CC(c2cc3ccccc3[nH]2)=N/C1=C\\c1[nH]c(C)cc1C [OBATOCLAX MESYLATE]" endpoint_result="104 nM"
molecule=CC1(C)CNc2cc(NC(=O)c3cccnc3NCc3ccncc3)ccc21 endpoint_result="> 2000 nM"

----------
test system: SW684; assay: cells; format: functional, cell-based, Homo sapiens; conditions: Homo sapiens, SW684;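 further: growth inhibition of human SW684 cells, measured by a cell viability assay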
Description: SANGER: Inhibition of human SW684 cell growth in a cell viability assay.
Where a name gives a salt, the structure may show the parent alone.
Result type: IC50

compound="COC1=CC(c2cc3ccccc3[nH]2)=N/C1=C\\c1[nH]c(C)cc1C [OBATOCLAX MESYLATE]" endpoint_result="> 16 µM"
compound="CC(C)CCN1c2nc(Nc3cc(F)c(O)c(F)c3)ncc2N(C)C(=O)C1C (configuration not stated)" endpoint_result="> 5 µM"
compound="N[C@@H](CSC(c1ccccc1)(c1ccccc1)c1ccccc1)C(=O)O [S-TRITYL-L-CYSTEINE]" endpoint_result="> 5.12 µM"
compound="CCN(CC)CCNC(=O)c1c(C)[nH]c(/C=C2\\C(=O)Nc3ccc(F)cc32)c1C [SUNITINIB]" endpoint_result="> 8 µM"
compound="CCN(CC)CCCCNc1ncc2cc(-c3cc(OC)cc(OC)c3)c(NC(=O)NC(C)(C)C)nc2n1 [PD-173074]" endpoint_result="> 2 µM"
compound=CC(C)c1ccccc1Cc1cc(C(=O)Nc2ccc(S(=O)(=O)c3ccccc3C(C)(C)C)cc2)c(O)c(O)c1O endpoint_result="8.83 µM"
compound="Nc1ccn([C@@H]2O[C@H](CO)[C@@H](O)C2(F)F)c(=O)n1 [GEMCITABINE]" endpoint_result="> 1.02 µM"
compound="COc1cc2ncn(-c3cc(OCc4ccccc4S(C)(=O)=O)c(C#N)s3)c2cc1OC [GSK-319347A]" endpoint_result="> 5 µM"
compound="CC(=O)O[C@H]1C(=O)[C@@]2(C)[C@H]([C@H](OC(=O)c3ccccc3)[C@]3(O)C[C@H](OC(=O)[C@H](O)[C@@H](NC(=O)c4ccccc4)c4ccccc4)C(C)=C1C3(C)C)[C@]1(OC(C)=O)CO[C@@H]1C[C@@H]2O [PACLITAXEL]" endpoint_result="> 0.102 µM"
compound="C=C(c1ccc(C(=O)O)cc1)c1cc2c(cc1C)C(C)(C)CCC2(C)C [BEXAROTENE]" endpoint_result="> 8 µM"
compound="CS(=O)(=O)c1ccc(C(=O)Nc2ccc(Cl)c(-c3ccccn3)c2)c(Cl)c1 [VISMODEGIB]" endpoint_result="> 10 µM"
compound="COc1cccc2c1C(=O)c1c(O)c3c(c(O)c1C2=O)C[C@@](O)(C(=O)CO)C[C@@H]3O[C@H]1C[C@H](N)[C@H](O)[C@H](C)O1 [DOXORUBICIN]" endpoint_result="> 1.02 µM"

----------
system: ACHN; experiment: cells; assay type: functional, cell-based, Homo sapiens; details: achn;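 further: cell viability read-out used to gauge how strongly growth of human ACHN cells is suppressed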
Description: SANGER: Inhibition of human ACHN cell growth in a cell viability assay.
pIC50: −log10 of the molar value.
Result type: pIC50

residues=BLEOMYCIN result_type=pIC50 endpoint_result=6.43

----------
system: COR-L23; test: cells; assay type: functional, cell-based, Homo sapiens; conditions: Homo sapiens, COR-L23;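 further: cell viability assay measuring how strongly compounds suppress growth of COR-L23 cells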
Description: SANGER: Inhibition of human COR-L23 cell growth in a cell viability assay.
pIC50: −log10 of the molar value.
Result type: pIC50

molecule=CS(=O)(=O)c1ccc(C(=O)Nc2ccc(Cl)c(-c3ccccn3)c2)c(Cl)c1 result_type=pIC50 result_modifier=< endpoint_result=5.00
molecule=CN(C)C(=N)NC(=N)N result_type=pIC50 result_modifier=< endpoint_result=1.70
molecule=N#Cc1c(O)c2c(-c3ccc(-c4ccccc4O)cc3)csc2[nH]c1=O result_type=pIC50 result_modifier=< endpoint_result=5.99
molecule=Cn1cnc2c(F)c(Nc3ccc(Br)cc3Cl)c(C(=O)NOCCO)cc21 result_type=pIC50 result_modifier== endpoint_result=5.40
molecule=Nc1ccn([C@@H]2O[C@H](CO)[C@@H](O)C2(F)F)c(=O)n1 result_type=pIC50 result_modifier== endpoint_result=7.85
molecule=Oc1ccc2ccccc2c1SSc1c(O)ccc2ccccc12 result_type=pIC50 result_modifier== endpoint_result=4.93
molecule="CC(C)CCN1c2nc(Nc3cc(F)c(O)c(F)c3)ncc2N(C)C(=O)C1C (configuration not stated)" result_type=pIC50 result_modifier== endpoint_result=5.32

----------
Consider the following molecules and their measured pIC50 readings.
test system: HCT-116; test: cells; assay type: functional, cell-based, Homo sapiens; details: Homo sapiens, HCT-116
Description: SANGER: Inhibition of human HCT-116 cell growth in a cell viability assay.
pIC50: −log10 of the molar value.
Result type: pIC50

molecule="CC1(C)CNc2cc(NC(=O)c3cccnc3NCc3ccncc3)ccc21 [MOTESANIB]" endpoint_result="< 5.70"
molecule="CC(C)CCN1c2nc(Nc3cc(F)c(O)c(F)c3)ncc2N(C)C(=O)C1C (stereo not drawn)" endpoint_result="< 5.30"
molecule="CCC/C=C/C=C/C(=O)O[C@H]1/C(=C/C(=O)OC)C[C@H]2C[C@H]([C@@H](C)O)OC(=O)C[C@H](O)C[C@@H]3C[C@H](OC(C)=O)C(C)(C)[C@](O)(C[C@@H]4C/C(=C/C(=O)OC)C[C@H](/C=C/C(C)(C)[C@]1(O)O2)O4)O3 [BRYOSTATIN 1]" endpoint_result="< 8.10"

----------
tested on: GP5d; experiment: cells; format: functional, cell-based, Homo sapiens; settings: gp5d
Description: SANGER: Inhibition of human GP5d cell growth in a cell viability assay.
pIC50: −log10 of the molar value.
Result type: pIC50

residues=BLEOMYCIN tgt=GP5d endpoint_result=4.81

----------
tested on: PANC-08-13; assay: cells; type: functional, cell-based, Homo sapiens; conditions: panc-08-13;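 further: cell growth inhibition, measured with a cell viability assay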
Description: SANGER: Inhibition of human PANC-08-13 cell growth in a cell viability assay.
pIC50: −log10 of the molar value.
Result type: pIC50

residues=CISPLATIN result_type=pIC50 endpoint_result=4.65

----------
test system: NTERA-2-cl-D1; experiment: cells; assay type: functional, cell-based, Homo sapiens; settings: Homo sapiens, NTERA-2-cl-D1
Description: SANGER: Inhibition of human NTERA-S-cl-D1 cell growth in a cell viability assay.
Consider the following compounds and their measured IC50 readings.
Result type: IC50

compound="Nc1cccc2c1CN(C1CCC(=O)NC1=O)C2=O (stereo not drawn) [LENALIDOMIDE]" result_type=IC50 endpoint_result="> 5 µM"
compound="CS(=O)(=O)c1ccc(C(=O)Nc2ccc(Cl)c(-c3ccccn3)c2)c(Cl)c1 [VISMODEGIB]" result_type=IC50 endpoint_result="> 10 µM"
compound="O=C(O)c1ccc(-c2c[nH]c3ncc(-c4ccccc4)cc23)cc1C1CCCC1 [GSK-650394]" result_type=IC50 endpoint_result="3.55 µM"
compound=Oc1ccc2ccccc2c1SSc1c(O)ccc2ccccc12 result_type=IC50 endpoint_result="> 32 µM"
compound=CC(C)c1ccccc1Cc1cc(C(=O)Nc2ccc(S(=O)(=O)c3ccccc3C(C)(C)C)cc2)c(O)c(O)c1O result_type=IC50 endpoint_result="0.167 µM"
compound="CC[C@H](CO)Nc1nc(NCc2ccccc2)c2ncn(C(C)C)c2n1 [SELICICLIB]" result_type=IC50 endpoint_result="> 16 µM"
compound="COc1cc2ncn(-c3cc(OCc4ccccc4C(F)(F)F)c(C(N)=O)s3)c2cc1OC [GW843682X]" result_type=IC50 endpoint_result="0.0174 µM"
compound="C#Cc1cccc(Nc2ncnc3cc(OCCOC)c(OCCOC)cc23)c1 [ERLOTINIB]" result_type=IC50 endpoint_result="> 2 µM"
